# Study Target: UniProt Q9UGL1
# Sequence (Q9UGL1 whole entry): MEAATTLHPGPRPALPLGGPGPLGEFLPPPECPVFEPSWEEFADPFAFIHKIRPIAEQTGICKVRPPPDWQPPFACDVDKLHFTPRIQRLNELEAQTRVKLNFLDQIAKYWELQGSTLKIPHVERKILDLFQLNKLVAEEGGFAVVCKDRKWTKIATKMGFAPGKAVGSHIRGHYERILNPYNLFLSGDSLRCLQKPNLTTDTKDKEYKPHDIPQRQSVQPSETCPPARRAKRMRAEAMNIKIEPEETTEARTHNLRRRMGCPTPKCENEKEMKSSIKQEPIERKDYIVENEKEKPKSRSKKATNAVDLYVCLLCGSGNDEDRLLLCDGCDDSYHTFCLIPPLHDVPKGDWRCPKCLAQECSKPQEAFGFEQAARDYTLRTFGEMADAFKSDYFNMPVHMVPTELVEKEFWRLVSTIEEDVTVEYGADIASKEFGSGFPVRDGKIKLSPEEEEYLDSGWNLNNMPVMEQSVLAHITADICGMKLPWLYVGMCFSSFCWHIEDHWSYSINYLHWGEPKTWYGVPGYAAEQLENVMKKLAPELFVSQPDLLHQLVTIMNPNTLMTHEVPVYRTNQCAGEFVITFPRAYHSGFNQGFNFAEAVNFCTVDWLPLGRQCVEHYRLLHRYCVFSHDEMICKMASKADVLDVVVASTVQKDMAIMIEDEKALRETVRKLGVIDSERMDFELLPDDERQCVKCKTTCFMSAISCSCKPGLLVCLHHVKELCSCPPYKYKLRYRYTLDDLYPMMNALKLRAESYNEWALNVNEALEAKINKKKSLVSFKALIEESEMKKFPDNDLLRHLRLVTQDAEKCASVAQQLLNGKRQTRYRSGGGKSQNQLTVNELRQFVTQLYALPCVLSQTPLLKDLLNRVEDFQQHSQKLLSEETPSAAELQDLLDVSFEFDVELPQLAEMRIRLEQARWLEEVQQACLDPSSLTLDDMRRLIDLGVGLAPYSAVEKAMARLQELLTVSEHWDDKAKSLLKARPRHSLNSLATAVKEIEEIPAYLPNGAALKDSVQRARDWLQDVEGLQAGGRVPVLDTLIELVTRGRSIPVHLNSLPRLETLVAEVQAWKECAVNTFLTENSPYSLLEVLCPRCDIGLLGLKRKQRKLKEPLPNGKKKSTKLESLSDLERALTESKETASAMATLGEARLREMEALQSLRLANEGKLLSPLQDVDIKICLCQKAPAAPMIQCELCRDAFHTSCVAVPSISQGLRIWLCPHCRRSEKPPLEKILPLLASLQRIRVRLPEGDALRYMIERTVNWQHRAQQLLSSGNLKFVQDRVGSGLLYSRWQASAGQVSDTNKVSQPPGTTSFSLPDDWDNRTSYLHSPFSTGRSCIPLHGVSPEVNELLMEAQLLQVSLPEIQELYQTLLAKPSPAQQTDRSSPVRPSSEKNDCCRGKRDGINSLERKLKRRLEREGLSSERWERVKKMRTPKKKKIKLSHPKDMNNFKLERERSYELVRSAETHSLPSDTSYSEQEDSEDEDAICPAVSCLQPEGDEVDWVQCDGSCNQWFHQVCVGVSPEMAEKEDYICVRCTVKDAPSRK
# Run Description: KDM5B TR-FRET Enzyme Activity Assay
# Format: biochemical
# Stated Conditions: LANCE TR-FRET; 5 nM full-length recombinant KDM5B; ten point titration 100000 nM to 5.08 nM
Experimental Readout: log10(IC50) (log10 of the value in nM)
Please interpret these as log10 of IC50 where IC50 is in nM.

Check out these entries, answers already filled in.
CC(C)c1c(-c2cnn(-c3ccccc3)c2)[nH]c2ncnn2c1=O : 0.80
CC(C)c1c(-c2ccncc2)[nH]c2ncnn2c1=O : 1.61
CC(C)c1c(-c2cccc(C(F)(F)F)c2)[nH]c2ncnn2c1=O : 1.61
CC(C)c1c(-c2cnn(CC3CC3)c2)[nH]c2ncnn2c1=O : 0.71
CC(C)c1c(C2=COCCC2)[nH]c2ncnn2c1=O : 2.40
CC(C)c1c(-c2ccc3cccnc3c2)[nH]c2ncnn2c1=O : 1.43
CC(C)c1c(-c2ccc(N)c(F)c2)[nH]c2ncnn2c1=O : 1.44
CCc1c(C)[nH]c2nncn2c1=O : 4.96

Turning now to a further record.
-- ask State the recorded log10(IC50) for this entry: CC(C)c1c(-c2cnn(C3CC3)c2)[nH]c2ncnn2c1=O
-- reply 0.76
